Would you mind telling me the reported growth inhibition of each entry?
- test: NCI Yeast Anticancer Drug Screen. Data for the sgs1 mgt1 strain (AID 161);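 note: 0% = growth of cultures given vehicle only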
- condition-details: S. cerevisiae sgs1 mgt1 strain, at 50.0 µM, stronger effect = higher value
The panel holds about 79,000 compounds, 15% with a hit somewhere; the sample as a whole holds those more often. Active and inactive are the calls of the source. Cut-off read from the data, not from the text of the source: active = growth inhibition above about 70%; inactive = the rest.

Prompt line: Look at this compound and give its reported growth inhibition. O=C(NSNc1ccccc1)c1ccccc1
Response line: -7.6% (inactive)

Prompt line: Do the same for CC(C)/C=N\n1c(N)c(C#N)c(C#N)c1C(C)C please
Response line: -37% (inactive)

Prompt line: Do the same for Clc1c(Cl)c(CBr)c(Cl)c(-c2c(Cl)c(Cl)c(Cl)c(CBr)c2Cl)c1Cl please
Response line: -2.55% (inactive)

Prompt line: Do the same for CCOc1ccc(OCC)c(N)c1 please
Response line: -2.5% (inactive)

Prompt line: Do the same for COc1ccccc1OC(=O)Nc1ccc(S(=O)(=O)N(C)C)cc1 please
Response line: 0% (inactive)

Prompt line: Do the same for O=C(Nc1ccccc1-c1ccccc1)c1cccnc1 please
Response line: 9.2% (inactive)

Prompt line: Do the same for C[N+](C)(N)CCC[N+](C)(C)N please
Response line: -3.3% (inactive)

Prompt line: Do the same for S=C(N/N=C\c1ccc(Cl)cc1Cl)Nc1ccc2cn[nH]c2c1 please
Response line: 28.2% (inactive)

Prompt line: Do the same for O=C1c2ccccc2C(=O)N1N1C(=O)C2C3CCC(O3)C2C1=O (stereo not given) please
Response line: 12.9% (inactive)

Prompt line: Do the same for Cc1nc(N)c(N2CCN(S(=O)(=O)N(Cc3ccccc3)Cc3ccccc3)CC2)c(=O)[nH]1 please
Response line: 2.95% (inactive)

Prompt line: Do the same for CN(C)NC1=C([N+](=O)[O-])C=NN(c2ccccc2)C1 please
Response line: 13.4% (inactive)

Prompt line: Do the same for CSc1nc(NC2OC(COC(C)=O)C(OC(C)=O)C(OC(C)=O)C2OC(C)=O)c(-c2csc(N)n2)c(=O)n1C (stereo not given) please
Response line: -22.4% (inactive)

Prompt line: Do the same for CCOC(=O)c1sc(SSc2nc(C)c(C(=O)OCC)s2)nc1C please
Response line: 2.7% (inactive)

Prompt line: Do the same for C(=N\N1CCN(/N=C/c2cccc3ccccc23)CC1)/c1cccc2ccccc12 please
Response line: 19% (inactive)

Prompt line: Do the same for CC1OC(C)(c2ccccc2)OC1C (stereo not given) please
Response line: 27.1% (inactive)

Prompt line: Do the same for CCCCCCCCCCCCCCCCN1c2ccccc2C(C)(C)C12C=Cc1cccc([N+](=O)[O-])c1O2 (stereo not given) please
Response line: 13.7% (inactive)

Prompt line: Do the same for COc1cc2c(cc1OC)C(c1c(Cl)cccc1Cl)=NCC2 please
Response line: 41.4% (inactive)

Prompt line: Do the same for Cc1ccc(NC(=O)C2CCN(C)CC2)cc1 please
Response line: -16.7% (inactive)

Prompt line: Do the same for N=C(N)n1ncc2c1CCC/C2=N/N=C(N)N please
Response line: 13.5% (inactive)

Prompt line: Do the same for COc1ccc(-n2c(C)nc3c(cnn3C3OC(CO)C(O)C3O)c2=O)cc1 (stereo not given) please
Response line: -15.1% (inactive)

Prompt line: Do the same for O=C(Nc1cc([N+](=O)[O-])cc2c1[nH]c(=O)c1ccccc12)C(F)(F)F please
Response line: 10.8% (inactive)

Prompt line: Do the same for C=CCc1cc(C(=O)O)ccc1OC please
Response line: -16.1% (inactive)

Prompt line: Do the same for CNCC(O)(C(=O)O)C(=O)O please
Response line: -32.9% (inactive)

Prompt line: Do the same for COc1ccc2c(c1)CCC1=C2CC2C(=O)C1(C)CCC2(C)OC(C)=O (stereo not given) please
Response line: -1.3% (inactive)

Prompt line: Do the same for CC(=O)Nc1ccc(N=Nc2c(C)nn(C(=N)N)c2C)cc1 please
Response line: 0.45% (inactive)

Prompt line: Do the same for OCC1CCCC(n2cnc3c(=S)nc[nH]c32)O1 (stereo not given) please
Response line: -20.2% (inactive)

Prompt line: Do the same for Oc1cc2c(cc1C(c1ccc(Cl)cc1)N1CCCCC1)OCO2 (stereo not given) please
Response line: 1.25% (inactive)

Prompt line: Do the same for CC(C)N(Cc1ccccc1)C(=O)Nc1ccc(Cc2ccc(NC(=O)N(Cc3ccccc3)C(C)C)cc2)cc1 please
Response line: 0.35% (inactive)

Prompt line: Do the same for CC(CCc1nc2ccccc2[nH]1)c1nc2ccccc2[nH]1 (stereo not given) please
Response line: -0.8% (inactive)

Prompt line: Do the same for Cc1cc2c(c3c1C(=O)CC3)CCCC2(C)C please
Response line: 2.75% (inactive)

Prompt line: Do the same for COc1ccc(C(=O)/C=C/c2ccncc2)cc1OC please
Response line: 51.5% (inactive)

Prompt line: Do the same for CCn1c2ccc(C=O)cc2c2cc([N+](=O)[O-])ccc21 please
Response line: 7.2% (inactive)

Prompt line: Do the same for COc1c(O)c2ccccc2c2cc(O)ccc12 please
Response line: 23.6% (inactive)

Prompt line: Do the same for CC1=CC2=NCC(O)CN2C=C1 (stereo not given) please
Response line: 9.25% (inactive)

Prompt line: Do the same for CC(C)[Si]1(C(C)C)OCC2OC(n3c(C(=O)c4ccccc4)cc(=O)[nH]c3=O)CC2O[Si](C(C)C)(C(C)C)O1 (stereo not given) please
Response line: 17.5% (inactive)

The measured values listed here are drawn from PubChem BioAssay (NCI).
